Record form. Attribute: growth inhibition. Fill in for each entry.
Experiment: NCI Yeast Anticancer Drug Screen. Data for the mlh1 rad18 strain (AID 175)
Conditions: S. cerevisiae mlh1 rad18 strain growth inhibition; at 50.0 µM (retest, dose inferred, filed as 5.0); stronger effect = higher value
Description: Growth inhibition of yeast strains with defined genetic alterations is measured as a screen for potential anti-cancer activity. Selected strains with alterations in DNA damage repair or cell cycle control were exposed to compounds and growth inhibition was measured relative to vehicle treated controls. The strain used in this assay is mlh1 rad18
Compounds without any hit were thinned out: in the full panel of roughly 79,000, 15% have a hit. Activity calls are given as the source filed them. No stated cut-off is given here; in the data, active means growth inhibition above about 70%; inactive means the rest.

O=C(O)/C=C/C(=O)Nc1cccc2c1C(=O)c1ccccc1-2
97% (active)
CCOC(=O)c1cc(NC(=O)c2cc(NC(=O)c3cc(NC(=O)c4c(-c5ccccc5)noc4C)cn3C)cn2C)cn1C
67% (inactive)

Batch request: growth inhibition for each of the following compounds.
1. NC(=O)C(=O)N/N=C/c1ccc([N+](=O)[O-])o1
2. N#C/C(=C\NC(=S)Nc1cc(Cl)ccc1Cl)c1nc2ccccc2s1
3. C/C(O)=C(/C=N/C(=S)Nc1ccc(S(N)(=O)=O)cc1)C(=O)Nc1ccccc1C

**A:**
1: 65% (inactive); 2: 12% (inactive); 3: -15% (inactive)

// for each compound below, give its growth inhibition
1. CC(=O)/C=N/Nc1ccccc1
2. O=C1C=CC(=O)C2C1Cc1ccccc1C2c1ccccc1 (stereo not drawn)
3. C=C(Br)COc1ccc2c(C)cc(=O)oc2c1
4. C1CCC2CC3(CCNCC3)CCC2C1 (stereo not drawn)
5. Clc1cc(Cl)c(OCCOCCI)c(Cl)c1
6. O=NNc1ccc(-c2ccc([N+](=O)[O-])cc2)cn1

**A:**
["32% (inactive)", "98% (active)", "51% (inactive)", "73% (active)", "5% (inactive)", "48% (inactive)"]

Provide each entry's growth inhibition from the list below.
1. CCc1ccc2ccc3ccc(CC)nc3c2n1
2. CCCCN(CCCC)CN1C(=O)/C(=C/c2ccc(NC(C)=O)cc2)NC1=S
3. Cc1cc2nc3c(C)c4ccccc4c(C)n3c2cc1C
4. Nc1nc(Cl)cc(Nc2ccc(Cl)c(Cl)c2)n1

**A:**
96% (active)
79% (active)
95% (active)
79% (active)
